Measured CC50 at 48 h of individual entries
Test: Cytotoxicity against African green monkey COS7 cells after 48 hrs by MTT assay
Format: cell-based
Details: chlorocebus aethiops, COS-7 cells
Quick reminder: number only, in µM, skip the unit.

# chemicalString, CC50 at 48 h [µM]
measured = [
    ("O=C(NCC(c1ccccc1)c1ccccc1)c1nsnc1O", 190),
    ("Cn1nc(O)c(C(=O)O)c1COc1cccc(C(F)(F)F)c1", 167),
]

Here is the next item to consider.
Entry Cn1nc(O)c(C(=O)O)c1COc1ccc(C(F)(F)F)cc1 has what CC50 at 48 h? 152

====

Assay: Dissociation constant, pKa of the compound by potentiometric analysis
Format: physicochemical
quantityMeasured: pKa
Just the number, please, no unit attached.

Here is how some compounds turned out for pKa.
# chemicalString, valueObserved
records = [
    ("O=C(NCC(c1ccccc1)c1ccccc1)c1nsnc1O", 3.72),
    ("Cc1c(C(=O)NCC(c2ccccc2)c2ccccc2)c(O)nn1C", 6.54),
    ("O=C(NCc1ccccc1)c1nsnc1O", 3.69),
    ("Cn1cc(C(=O)NCC(c2ccccc2)c2ccccc2)c(O)n1", 6.42),
]

Here is the next item to consider.
Entry O=C(NCC(c1ccccc1)c1ccccc1)c1nonc1O has what pKa? 3.33

====

Target: Dihydroorotate dehydrogenase (Plasmodium falciparum, UniProt Q54A96)
Sequence (Q54A96 whole entry, the tested form may be a part): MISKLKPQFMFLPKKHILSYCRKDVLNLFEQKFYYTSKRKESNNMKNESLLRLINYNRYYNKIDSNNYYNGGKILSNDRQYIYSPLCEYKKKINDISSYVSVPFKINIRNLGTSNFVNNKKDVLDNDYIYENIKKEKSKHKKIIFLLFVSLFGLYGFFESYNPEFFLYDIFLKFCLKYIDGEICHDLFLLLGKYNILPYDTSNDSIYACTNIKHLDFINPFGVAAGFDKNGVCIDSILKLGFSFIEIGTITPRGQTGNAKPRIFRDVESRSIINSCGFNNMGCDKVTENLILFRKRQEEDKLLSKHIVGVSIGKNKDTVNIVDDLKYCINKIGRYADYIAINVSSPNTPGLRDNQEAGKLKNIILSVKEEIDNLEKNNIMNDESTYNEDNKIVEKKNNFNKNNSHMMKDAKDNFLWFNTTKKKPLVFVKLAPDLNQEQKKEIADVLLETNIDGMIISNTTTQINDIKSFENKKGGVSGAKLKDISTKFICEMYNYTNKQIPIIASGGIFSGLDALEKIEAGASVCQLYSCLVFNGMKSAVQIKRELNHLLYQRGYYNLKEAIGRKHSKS
Test: Inhibition of Plasmodium falciparum recombinant N-terminal His6-tagged DHODH (159-569 residues) expressed in Escherichia coli BL21(DE3) using DHO as substrate measured every min for 5 mins by DCPI dye-based photometric analysis
Measured pIC50 of individual entries
Give only the number. pIC50 is defined as minus log10 of concentration in molar units.

# chemicalString, subjectOfTest, pIC50
data = [
    ("Cn1nc(O)c(C(=O)O)c1CSc1ccccc1", "Dihydroorotate dehydrogenase (Plasmodium falciparum, UniProt Q54A96)", 4.60),
    ("CN(Cc1c(C(=O)O)c(O)nn1C)c1ccccc1", "Dihydroorotate dehydrogenase (Plasmodium falciparum, UniProt Q54A96)", 4.64),
    ("Cn1nc(O)c(C(=O)O)c1COc1ccc(C(F)(F)F)cc1", "Dihydroorotate dehydrogenase (Plasmodium falciparum, UniProt Q54A96)", 5.28),
    ("Cn1nc(O)c(C(=O)O)c1CNc1ccccc1", "Dihydroorotate dehydrogenase (Plasmodium falciparum, UniProt Q54A96)", 4.80),
    ("O=C(NCC(c1ccccc1)c1ccccc1)c1nsnc1O", "Dihydroorotate dehydrogenase (Plasmodium falciparum, UniProt Q54A96)", 4.92),
    ("O=C(NCc1ccccc1)c1nsnc1O", "Dihydroorotate dehydrogenase (Plasmodium falciparum, UniProt Q54A96)", 4.46),
    ("Cn1nc(O)c(C(=O)O)c1COc1ccccc1", "Dihydroorotate dehydrogenase (Plasmodium falciparum, UniProt Q54A96)", 4.72),
    ("O=C(NCC(c1ccccc1)c1ccccc1)c1nonc1O", "Dihydroorotate dehydrogenase (Plasmodium falciparum, UniProt Q54A96)", 4.12),
]

Entry Cn1nc(O)c(C(=O)O)c1COc1cccc(C(F)(F)F)c1 has what pIC50? 5.55

====

Biological target: Dihydroorotate dehydrogenase (quinone), mitochondrial (Homo sapiens, UniProt Q02127)
Sequence (Q02127 whole entry, the tested form may be a part): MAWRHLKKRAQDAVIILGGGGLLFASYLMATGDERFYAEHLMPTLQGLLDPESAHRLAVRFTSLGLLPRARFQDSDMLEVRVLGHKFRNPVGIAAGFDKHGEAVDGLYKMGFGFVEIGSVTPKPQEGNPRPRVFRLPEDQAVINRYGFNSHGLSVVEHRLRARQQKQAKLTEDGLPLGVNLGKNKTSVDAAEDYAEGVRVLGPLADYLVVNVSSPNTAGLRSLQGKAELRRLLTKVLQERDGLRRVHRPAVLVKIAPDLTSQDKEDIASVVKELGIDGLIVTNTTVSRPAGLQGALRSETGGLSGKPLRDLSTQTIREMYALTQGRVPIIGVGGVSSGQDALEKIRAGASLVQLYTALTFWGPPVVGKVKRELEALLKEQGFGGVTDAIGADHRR
Experiment: Inhibition of human recombinant N-terminal GST-tagged DHODH (31 to 395 residues) expressed in Escherichia coli BL21(DE3) using DHO as substrate preincubated for 5 mins followed by substrate addition and measured for 5 mins by DCPI dye-based assay
pIC50: −log10 of the molar value.
quantityMeasured: pIC50

Here is how some molecules turned out for pIC50.
# chemicalString, pIC50
data = [
    ("Cn1nc(O)c(C(=O)O)c1CSc1ccccc1", "< 3.60"),
    ("Cn1nc(O)c(C(=O)O)c1COc1cccc(C(F)(F)F)c1", "≤ 3.70"),
    ("O=C(NCC(c1ccccc1)c1ccccc1)c1nsnc1O", "< 3.70"),
    ("Cn1nc(O)c(C(=O)O)c1COc1ccccc1", "< 3.60"),
    ("O=C(NCC(c1ccccc1)c1ccccc1)c1nonc1O", "< 3.70"),
]

Here is the next item to consider.
Entry Cn1nc(O)c(C(=O)O)c1CNc1ccccc1 has what pIC50? < 3.60

====

Measured Ratio IC50 of individual entries
Experiment: Selectivity ratio of IC50 for human recombinant DHODH to IC50 for Plasmodium falciparum recombinant DHODH

Here is how some compounds turned out for Ratio IC50.
# chemicalString, quantityMeasured, valueObserved
measured = [
    ("Cn1nc(O)c(C(=O)O)c1CSc1ccccc1", "Ratio IC50", "> 10"),
    ("Cn1nc(O)c(C(=O)O)c1COc1ccccc1", "Ratio IC50", "> 13"),
    ("O=C(NCc1ccccc1)c1nsnc1O", "Ratio IC50", "> 6"),
    ("Cn1nc(O)c(C(=O)O)c1CNc1ccccc1", "Ratio IC50", "> 16"),
    ("O=C(NCC(c1ccccc1)c1ccccc1)c1nonc1O", "Ratio IC50", "> 3"),
]

Here is the next item to consider.
Entry CN(Cc1c(C(=O)O)c(O)nn1C)c1ccccc1 has what Ratio IC50? > 10

====

Biological target: Dihydroorotate dehydrogenase (quinone), mitochondrial (Homo sapiens)
Assay: Inhibition of human recombinant N-terminal GST-tagged DHODH (31 to 395 residues) expressed in Escherichia coli BL21(DE3) using DHO as substrate preincubated for 5 mins followed by substrate addition and measured for 5 mins by DCPI dye-based assay
Measured IC50 of individual entries

Here is how some molecules turned out for IC50.
# chemicalString, subjectOfTest, IC50
records = [
    ("CN(Cc1c(C(=O)O)c(O)nn1C)c1ccccc1", "Dihydroorotate dehydrogenase (quinone), mitochondrial (Homo sapiens)", "> 250 µM"),
    ("Cn1nc(O)c(C(=O)O)c1COc1ccc(C(F)(F)F)cc1", "Dihydroorotate dehydrogenase (quinone), mitochondrial (Homo sapiens)", "≥ 200 µM"),
]

Here is the next item to consider.
Entry O=C(NCc1ccccc1)c1nsnc1O has what IC50? > 200 µM

From: ChEMBL document CHEMBL4330080
